Values compiled from the supplement of paper PMC10567573.

B1: SMOC2 (parent)
chain: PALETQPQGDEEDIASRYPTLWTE

Variants of: B1
Assay: protein stability index of a GFP-peptide fusion (GPS, HEK-293T) (PSI 1-6); higher = more stable;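 also: lentivirally expressed fusions sorted by FACS into six bins by GFP to DsRed ratio, PSI derived from sequencing read proportions per bin multiplied by bin number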
Conditions: c terminus: a fixed tail appended
metric: protein stability index
Lab note: record just the number, no unit beside it.

# variant `I14D` ; its protein stability index = 5.77

# variant `E12Q` ; its protein stability index = 4.42

Consider `P1C` . Its measured protein stability index is 3.24

Form field protein stability index, entry `P1K` : 4.04

Memo: `P19K` , reported protein stability index: 4.32

Lab note: measured protein stability index of `E4A` was 4.42

Please fill in: protein stability index reported for `R17A` = 4.81

Per the records, this variant ( `L21E` ) has protein stability index equal to 5.39

The reported value for `Q6V` in terms of protein stability index is 3.97

Form field protein stability index, entry `T20M` : 4.4

Form field protein stability index, entry `E12C` : 4.12

Entry under test: `A2R` . Its protein stability index was 3.7

Reported protein stability index for `L3G` was 4.33

protein stability index measured on `S16G` = 5.21

Kindly note the recorded protein stability index for `P19T` , which is 4.53

Recorded result, `S16M` , protein stability index: 5.09

`E4S` has a reported protein stability index of 4.32

protein stability index reported for this variant `Y18C` : 4.32

The reported protein stability index of the variant `Q8I` was 5.02

Measured protein stability index of `Q8L` : 4.05

Summary for this variant, `P1W` : protein stability index is 3.84

Noted for `R17E` : its protein stability index reads 4.5
